These entries and their values trace back to PubChem BioAssay.

# target-system: Voltage-gated potassium channel subunit beta-2 (Rattus norvegicus) (UniProt P62483)
# Sequence (P62483 whole entry, looked up): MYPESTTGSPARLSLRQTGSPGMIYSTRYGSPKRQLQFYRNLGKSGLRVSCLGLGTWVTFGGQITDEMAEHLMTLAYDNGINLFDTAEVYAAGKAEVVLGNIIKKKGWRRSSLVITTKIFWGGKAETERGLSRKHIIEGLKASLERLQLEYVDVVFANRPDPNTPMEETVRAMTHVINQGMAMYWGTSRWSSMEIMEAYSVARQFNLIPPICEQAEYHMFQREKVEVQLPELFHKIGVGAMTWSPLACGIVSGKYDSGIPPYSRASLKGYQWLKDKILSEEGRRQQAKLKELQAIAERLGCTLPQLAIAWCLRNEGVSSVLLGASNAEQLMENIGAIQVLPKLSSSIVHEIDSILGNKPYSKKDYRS
# method-summary: inhibitors of rat Kvbeta2 reductase activity – biochemical, NADPH fluorescence, primary screen (AID 622);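 note: slope of raw intensity against log time taken from 70 to 1610 s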
# condition-parameters: recombinant KvBeta, 4-cyanobenzaldehyde reduction, at 10 µM, stronger effect = higher value
# fluorescence slope listing for each entry below
Lab note: write the figure by itself, no unit.

1) O=C(CN1CCN(Cc2ccccc2)CC1)Nc1ccc(Cl)cn1 = -0.502
2) CCN(CCCNC(=O)COc1cc(=O)n(CC)c2ccccc12)c1ccccc1 = -0.501
3) Cc1ccc2c(c1)C(O)(CC(=O)c1ccc3c(c1)OCO3)C(=O)N2 (centres undefined) = -0.511

Now let's try a different one.
In: Report fluorescence slope for Cc1ccccc1-c1nc(CS(=O)(=O)CC(=O)NCc2ccc3c(c2)OCO3)c(C)o1 please.
Out: -0.497

---

# target-system: Alpha-2C adrenergic receptor (Homo sapiens) (UniProt P18825)
# Sequence (P18825 whole entry, looked up): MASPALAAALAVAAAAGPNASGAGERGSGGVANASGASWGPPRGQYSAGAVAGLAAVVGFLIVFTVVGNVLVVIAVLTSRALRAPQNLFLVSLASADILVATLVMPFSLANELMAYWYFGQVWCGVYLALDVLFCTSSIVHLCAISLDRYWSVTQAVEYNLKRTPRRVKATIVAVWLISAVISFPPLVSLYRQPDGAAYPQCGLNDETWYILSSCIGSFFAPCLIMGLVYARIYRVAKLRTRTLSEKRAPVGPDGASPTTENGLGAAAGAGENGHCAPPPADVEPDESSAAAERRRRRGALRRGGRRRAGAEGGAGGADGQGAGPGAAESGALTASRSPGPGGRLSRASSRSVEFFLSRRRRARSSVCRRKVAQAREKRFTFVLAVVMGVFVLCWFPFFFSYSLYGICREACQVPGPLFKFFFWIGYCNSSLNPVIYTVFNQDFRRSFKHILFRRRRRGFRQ
# method-summary: compounds altering alpha2C-coupled GIRK flux – cell-based, HEK293 alpha2C/GIRK1/2, thallium flux, primary screen (AID 624);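 note: slope of fluorescence ratio to pre-addition baseline per second over 15 to 24 s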
# condition-parameters: thallium flux BTC fluorescence, at 10 µM, actives lie on both sides
Cut-off 0.006 on slope: below means met, at or above means not met.

1. Cc1nc(CNS(=O)(=O)c2cccc(F)c2)cs1 = not met
2. Cc1cc(C(=O)NCCCc2ccccc2)no1 = met
3. CCN(c1cccc(C(F)(F)F)c1)S(=O)(=O)c1ccc2c(c1)CCN2C(=O)C1CC1 = met
4. COC(=O)CN(c1ccc(OC)cc1)S(=O)(=O)c1ccc(OC)c(OC)c1 = met
5. Cc1ccc(C(C(=O)NC(C)(C)C)N(C(=O)c2csnn2)c2cccc(F)c2)o1 (stereo unspecified) = not met
6. CC1=C(C(N)=O)C(c2ccccn2)n2nc(SCc3ccccc3)nc2N1 (stereo unspecified) = met

In: hey, is slope for Fc1ccc(-c2csc3nnc(SCc4cccnc4)n23)cc1 lower than 0.006 or not?
Out: met

In: hey, is slope for Nn1c(SCC(=O)Nc2ccc(F)cc2)nnc1-c1cccnc1 lower than 0.006 or not?
Out: met

In: hey, is slope for O=C(OCn1nnc2ccccc2c1=O)C1CCN(S(=O)(=O)c2cccs2)CC1 lower than 0.006 or not?
Out: met

In: hey, is slope for O=C(Nc1nnc(COc2ccc(F)cc2)s1)c1cccs1 lower than 0.006 or not?
Out: met

In: hey, is slope for COc1ccc(CN(CC(=O)NCC2CCCO2)C(=O)CNS(=O)(=O)c2ccc(C)cc2)cc1 (stereo unspecified) lower than 0.006 or not?
Out: met

In: hey, is slope for Nc1nc(N2CCCCC2)nc(N(c2ccccc2)c2ccccc2)n1 lower than 0.006 or not?
Out: not met

In: hey, is slope for O=C(c1cnn2c(C(F)F)cc(C3CC3)nc12)N1CCOCC1 lower than 0.006 or not?
Out: met

In: hey, is slope for O=C(NCCCN1CCCC1=O)c1ccc2c(c1)NC(=O)C(N1CCOCC1)S2 (stereo unspecified) lower than 0.006 or not?
Out: met

In: hey, is slope for COC(=O)c1sc(N2C(=O)C(O)=C(C(=O)c3ccc(C)o3)C2c2ccc(F)cc2)nc1C (stereo unspecified) lower than 0.006 or not?
Out: met

---

# method-summary: endothelial E-selectin expression blockers – imaging, HUVEC, immunofluorescence, MLSMR starter and 10KST1 sets, primary screen (AID 487);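 note: 100% = median nuclei count of all wells on the same plate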
# condition-parameters: HUVEC TNFalpha-induced E-selectin immunofluorescence imaging, at 2 µM; measured here: cell number, toxicity
# nuclei count listing for each entry below
Please reply with the bare figure in % and do not write the unit itself.

Answered cases to consult:
1. CCCS(=O)(=O)NCCc1cc2cc(C)c(C)cc2[nH]c1=O = 106
2. COc1ccc(Br)cc1CNC(=O)C1CCCN(S(C)(=O)=O)C1 (stereo not given) = 113
3. O=c1oc2ccccc2cc1NCc1ccccc1O = 106

In: Report nuclei count for Cc1cc(NC(=O)CSc2nc3c(c(=O)n2Cc2ccccc2)SC(C)C3)no1 (stereo not given) please.
Out: 86.8

In: Report nuclei count for Fc1ccccc1C(c1nnnn1Cc1ccc2c(c1)OCO2)N1CCN(Cc2ccccc2)CC1 (stereo not given) please.
Out: 108

In: Report nuclei count for COc1ccc(-c2nc(CSCC(=O)N3CCN(c4cccc(C)c4)C(C)C3)c(C)o2)cc1OC (stereo not given) please.
Out: 83.2

In: Report nuclei count for COC(=O)c1[nH]c2c(c1C)C(=O)CC(c1cc(OC)ccc1OC)C2 (stereo not given) please.
Out: 114

In: Report nuclei count for COC(=O)c1sc(N2C(=O)C(O)=C(C(=O)c3ccc(C)o3)C2c2ccc(F)cc2)nc1C (stereo not given) please.
Out: 109
